Origin of values: PubChem BioAssay (NCATS)

assayMethodText: Quantitative High-Throughput drug screen in 47 multiple myeloma cell lines against the NCATS MIPE library collection: INA6_PLB cell viability assay (AID 1918965; note: nearly all actives have a fitted effect of over 55% in size)
cond: INA6 myeloma viability, CellTiter-Glo ATP luminescence, 48 h; series mostly up to 45.8 µM
Results filed as inconclusive are left out. Activity calls are given as the source filed them. Calls come from the whole dose curve; as a rule, active = well fitted cell-killing curve with a large enough effect; inconclusive = small, poorly fitted or top-dose-only effect, or effect the other way; inactive = no such curve, though single readings can be large or run the other way.
Use one of these outcomes when replying: y (active), n (inactive)

Completed entries (count: 8):
> print(dat)
                                   compound  discretelabel
1  Clc1ccc(COC(Cn2ccnc2)c2ccc(Cl)cc2Cl)cc1 (stereo not given)              y
2    O=C1NC(=O)C(=Cc2ccc3c(c2)OC(F)(F)O3)S1              y
3  CC(C)[C@H](CO)Nc1nc(Nc2ccc(C(=O)O)c(Cl)c2)c2ncn(C(C)C)c2n1              y
4  Clc1ccc(-c2nc3sccn3c2C=NOCc2ccc(Cl)c(Cl)c2)cc1              n
5  N[C@H](CSC(c1ccccc1)(c1ccccc1)c1ccccc1)C(=O)O              y
6  Cc1ccc(C(C)(O)c2nc3ccccc3s2)c(C)c1 (stereo not given)              n
7         O=C(NCc1ccccc1)c1csc(Nc2ccncn2)n1              y
8     COc1ccc(Cc2nccc3cc(OC)c(OC)cc23)cc1OC              y

Hi team, can someone confirm the assay call for `Cc1cc(OCCCc2c(C(=O)O)n(Cc3cccnc3)c3c(-c4c(COc5ccc(N6CCN([S+](C)(=O)[O-])CC6)cc5)nn(C)c4C)cccc23)cc(C)c1Cl` ?
y

Recorded test outcome, item `COc1cc2nc(-c3ccc(N4CCN(C)CC4)cc3)nc(NCCN3CCOCC3)c2cc1OC`
y

----------
assayMethodText: Quantitative High-Throughput drug screen in 47 multiple myeloma cell lines against the NCATS MIPE library collection: MM1S_ATCC cell viability assay (AID 1918980); note: nearly all actives have a fitted effect of over 45% in size
cond: MM1S myeloma viability, CellTiter-Glo ATP luminescence, 48 h; series mostly up to 45.8 µM
Results filed as inconclusive are left out. Active and inactive are the calls of the source. The call rests on the fitted dose curve; in most records, active means well fitted cell-killing curve with a large enough effect; inconclusive means small, poorly fitted or top-dose-only effect, or effect the other way; inactive means no such curve, though single readings can be large or run the other way.
// classify into active, inactive

> print(dat)
                                   molecule  discretelabel
1  Cc1c(O)cccc1C(=O)N[C@@H](CSc1ccccc1)[C@H](O)CN1C[C@H]2CCCC[C@@H]2C[C@@H]1C(=O)NC(C)(C)C         active
2  CC(C)(C)c1cc(C(=O)O)c(NC(=O)Nc2ccc3[nH]ncc3c2)s1         active

Call for entry `O=C(CCCCCCC(=O)Nc1ccccc1)NO` :
active

Just curious, what result did NC1CCC(Nc2nc(Nc3ccc(C(=O)N4CCCCC4)cc3)c3ncn(-c4cccc(F)c4)c3n2)CC1 (stereo not given) get here?
inactive

What outcome does the record of this test show for `CN(C)Cc1cccc(N=C(c2ccccc2)c2c(O)[nH]c3cc(C(=O)N(C)C)ccc23)c1` ?
active

Per the assay record, what outcome was assigned to O=C1Nc2ccc(Cl)cc2C(C#CC2CC2)(C(F)(F)F)O1 (stereo not given) ?
active

What did the test return for `O=C(Nc1c(Cl)cncc1Cl)c1ccc(OC(F)F)c(OCC2CC2)c1` ?
active

Test call, this molecule: `Cc1cc(OCCCc2c(C(=O)O)n(Cc3cccnc3)c3c(-c4c(COc5ccc(N6CCN([S+](C)(=O)[O-])CC6)cc5)nn(C)c4C)cccc23)cc(C)c1Cl`
active

Which outcome was assigned to CN1[C@@H]2CCC[C@@H]1CC(NC(=O)c1nn(C)c3ccccc13)C2 (stereo not given in full) in this test?
inactive

For this molecule, state the assay outcome: `O=C(Nc1ccccc1-c1cn2c(CN3CCNCC3)csc2n1)c1cnc2ccccc2n1`
active

----------
targetOrTestSystem: DNA polymerase III PolC-type (Bacillus subtilis (strain 168))
assayMethodText: qHTS Validation Assay for the Inhibitors of DNA Replication in Gram-Positive Bacteria (AID 485295);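 note: reconstituted holoenzyme with PolC plus beta clamp SSB and primase; PicoGreen fluorescence of double-stranded DNA made on primed circular M13 template; 0% = DMSO wells and -100% = EDTA-quenched background wells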
cond: Gram-positive bacterial DNA replication assay; series mostly up to 57.1 µM
Calls of active or inactive are those of the source. Calls follow the shape of the dose curve; as a rule, active = well fitted inhibition curve with a large enough effect; inconclusive = small, poorly fitted or top-dose-only effect; inactive = flat fitted curve, though single readings scatter.
reportedProperty: outcome

> print(dat)
                                   compound  reportedproperty    result
1  Clc1ccc(C(c2ccc(Cl)cc2)n2cc[n+](CC(OCc3ccc(Cl)cc3Cl)c3ccc(Cl)cc3Cl)c2)cc1 (stereo not drawn)           outcome  inactive
2     O=C(O)CCc1nc(-c2ccccc2)c(-c2ccccc2)o1           outcome  inactive
3    NC(N)=Nc1nc(CSCC/C(N)=N/S(N)(=O)=O)cs1           outcome  inactive
4  CCN1CCC[C@H]1CNC(=O)c1cc(S(N)(=O)=O)ccc1OC           outcome  inactive
5  CC1=C(/C=C/C(C)=C/C=C/C(C)=C/C(=O)Nc2ccc(O)cc2)C(C)(C)CCC1           outcome  inactive

Report outcome for `COC(=O)[C@@H]1[C@H]2C[C@H]3c4[nH]c5ccccc5c4CCN3C[C@@H]2CC[C@@H]1O` tested on DNA polymerase III PolC-type (Bacillus subtilis (strain 168)).
inactive

Requested read-out outcome, target or system DNA polymerase III PolC-type (Bacillus subtilis (strain 168)), entry `O=C1NC(=O)C(c2ccccc2)(c2ccccc2)N1`
inactive

Look up outcome with DNA polymerase III PolC-type (Bacillus subtilis (strain 168)) for this compound: `CCN(CC)CCOC(=O)c1ccc(N)cc1`
inactive

Form entry - test system: DNA polymerase III PolC-type (Bacillus subtilis (strain 168)); read-out: outcome; compound: Cc1cccc(C)c1OCC(C)N (stereo not drawn)
inactive

----------
assayMethodText: Quantitative High-Throughput drug screen in 47 multiple myeloma cell lines against the NCATS MIPE library collection: KMS21BM_JCRB cell viability assay (AID 1918974)
cond: ATP luminescence, 48 h
Results filed as inconclusive are left out. Active and inactive are the calls of the source. Calls follow the shape of the dose curve; as a rule, active = well fitted cell-killing curve with a large enough effect; inconclusive = small, poorly fitted or top-dose-only effect, or effect the other way; inactive = no such curve, though single readings can be large or run the other way.
Output constraint: value belongs to true (1) = active, false (0) = inactive

Test call for this compound, please: `NS(=O)(=O)c1cccc2c1C(=O)c1cccc(O)c1C2=O`
true (1)

Per the records of this test, what outcome belongs to `CO[C@@H](C(=O)N1Cc2[nH]nc(NC(=O)c3ccc(N4CCN(C)CC4)cc3)c2C1)c1ccccc1` ?
true (1)

What did this assay record as the result for `COc1ccc(Cc2nccc3cc(OC)c(OC)cc23)cc1OC` ?
false (0)

How was O=C(O)C(O)Cc1ccc(O)c(O)c1 (stereo unspecified) classified in this test?
true (1)

State the result this test recorded for `COCCOc1nc(-c2ccc(Cl)c(Cl)c2)n(-c2ccc(NC(=O)CCl)cc2)n1` .
true (1)

Outcome logged for `COc1cccc([C@@H](C)NCCCc2ccccc2Cl)c1` in this assay:
true (1)

----------
System: Es-2
assayMethodText: Primary qHTS to identify gynecologic anti-cancer compounds using libraries of approved drugs and bioactive compounds (AID 1345084); note: nearly all actives have a fitted effect of over 55% in size
cond: Gynecologic cancer cell panel viability, ATPlite luminescence, 48 h; series mostly up to 57.5 µM
Records with an inconclusive call do not appear. Active and inactive are the calls of the source. Calls follow the shape of the dose curve; as a rule, active = well fitted cell-killing curve with a large enough effect; inconclusive = small, poorly fitted or top-dose-only effect, or effect the other way; inactive = flat fitted curve, though single readings scatter.
Lab note: assign the record to one of true for active, false for inactive

How was `COCCOc1nc(-c2ccc(Cl)c(Cl)c2)n(-c2ccc(NC(=O)CCl)cc2)n1` classified in this test?
true

Fill in: this test's call for `CCN1CCC[C@H]1CNC(=O)c1cc(S(N)(=O)=O)ccc1OC` is ___
false

Tell me the recorded outcome of this test for `CC(C)C(=O)Nc1ncc(-c2cc(C(F)F)nn2-c2c(Cl)cccc2Cl)s1` .
false

Hi team, can someone confirm the assay call for CS(=O)c1ccc(-c2nc(-c3ccc(F)cc3)c(-c3ccncc3)[nH]2)cc1 (stereo unspecified) ?
false

Hi team, can someone confirm the assay call for `Cc1nc(N)sc1-c1ccnc(Nc2ccc(N3CCOCC3)cc2)n1` ?
true

Answer briefly: the call reported for `CCn1c(C(=O)N(C2CC2)C2CC2)cc2c3c(ncn3C)c(Nc3cc(C)n(C)n3)nc21` in this assay.
false

----------
assayMethodText: MultiTox-Fluor Cytotoxicity Assay - LYMP1-002 - Live Cells (AID 955);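 note: cells exposed to compound for 16 hours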
cond: LYMP1-002 lymphoblastoid live-cell protease fluorescence viability; series mostly up to 46.1 µM
Description: NIH Chemical Genomics Center [NCGC] NIH Molecular Libraries Screening Centers Network [MLSCN] National Institutes of Environmental Health Sciences [NIEHS] National Toxicology Program [NTP] We have developed a 1536-well cell-based assay for quantitative high throughput screening (qHTS) against a number of cell lines to determine in vitro cytotoxicity of small molecules. […] 8. Detection; live-cell fluorescence (Ex/Em=405/510); EnVision plate reader […]
Results filed as inconclusive are left out. The source made the active and inactive calls. Calls follow the shape of the dose curve; as a rule, active = well fitted cell-killing curve with a large enough effect; inconclusive = small, poorly fitted or top-dose-only effect, or effect the other way; inactive = flat fitted curve, though single readings scatter.
The reply should name one outcome from class 1 = active, class 0 = inactive

Some entries whose results are on file:
> print(dat)
                                   compound  discretelabel
1     CCCCC1C(=O)N(c2ccccc2)N(c2ccccc2)C1=O        class 0
2  CC(=O)c1ccc(S(=O)(=O)NC(=O)NC2CCCCC2)cc1        class 0

Lab log entry: `O=C(O)c1cc(O)c2c(c1)C(=O)c1cccc(O)c1C2=O` — outcome as called in the assay?
class 0

Field: outcome | Entry: `O=c1c(O)c(-c2ccc(O)cc2)oc2cc(O)cc(O)c12`
class 0

Dear all, I need the recorded test outcome for `CCn1cc(C(=O)O)c(=O)c2ccc(C)nc21` , thank you.
class 0

Please let me know the test result on file for `CCCNC(=O)NS(=O)(=O)c1ccc(Cl)cc1` .
class 0

# lookup: test call for CN(C)CCC(c1ccccc1)c1ccccn1 (stereo not given)
class 0

Recorded call for `CC1=C(/C=C/C(C)=C/C=C/C(C)=C/C(=O)Nc2ccc(O)cc2)C(C)(C)CCC1` ?
class 1

State the result this test recorded for `O=C1NC(=O)C(c2ccccc2)(c2ccccc2)N1` .
class 0

Fill in: this test's call for `CC/C(=C(\c1ccccc1)c1ccc(OCCN(C)C)cc1)c1ccccc1` is ___
class 1
